Assay procedure: differential killing of epithelial or mesenchymal cells, primary screen, imaging, PC-3E GFP, TEM4-18 mCherry, co-culture (AID 1345086);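 note: cells exposed to compound for 72 h before imaging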
Assay setup: imaging cell counts, measured here: epithelial PC-3E GFP cell survival, at 1 µM
Would you mind labelling by normalised cell number? At or over 1 is Met, under is Not met.

{"Compound": "CO[C@H]1/C=C/O[C@@]2(C)Oc3c(C)c(O)c4c(O)c(c5c(nc6cc(C)ccn65)c4c3C2=O)NC(=O)/C(C)=C\\C=C\\[C@H](C)[C@H](O)[C@@H](C)C(O)[C@@H](C)[C@H](OC(C)=O)[C@@H]1C (stereo partly specified)", "Label class": "Met"}
{"Compound": "C[C@H]1COc2c(N3CCN(C)CC3)c(F)cc3c(=O)c(C(=O)O)cn1c23", "Label class": "Met"}
{"Compound": "OCc1c[nH]c2ccccc12", "Label class": "Not met"}

Record "NCCSSCCN" ; criterion: normalised cell number no lower than 1. Met?
Met

And what about the compound "CN1C[C@H](C(=O)N[C@]2(C)O[C@@]3(O)[C@@H]4CCCN4C(=O)[C@H](Cc4ccccc4)N3C2=O)C[C@@H]2c3cccc4[nH]cc(c34)C[C@H]21" ?
Met

Same read-out for "COc1ccc2cc([C@H](C)CO)ccc2c1" ?
Met

Cool, now "NC(N)=NC(=O)c1nc(Cl)c(N2CCCCCC2)nc1N"
Met

Now consider "CC(=O)c1c(O)cc(O)cc1O" and answer again.
Not met

====

Assay procedure: survival rescue of mitochondrial mutant cells in low glucose, primary screen, MELAS cybrids, Rieske KO mouse fibroblasts, CellTiter-Glo (AID 1508586)
Assay setup: MELAS cybrid survival, CellTiter-Glo 48 h
Active and inactive are the calls of the source.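 The calls were made as follows: active = mean z-score across replicates of 1.96 or higher in either the MELAS or the Rieske mutant cell line; inactive = the rest.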
Use one of these outcomes when replying: active, inactive

{"Molecule": "OC(CN1CCN(c2cccc(Cl)c2)CC1)C(c1ccccc1)c1ccccc1 (centres undefined)", "Label class": "inactive"}
{"Molecule": "CCOC(=O)c1ccc(C#Cc2ccc3c(c2)C(C)(C)CCS3)nc1", "Label class": "inactive"}
{"Molecule": "CN1C(=O)CC(c2ccccc2)C1=O (centres undefined)", "Label class": "inactive"}
{"Molecule": "COc1cc2c(Nc3ccc(NC(=O)c4ccccc4)cc3)ncnc2cc1OCCCN1CCOCC1", "Label class": "inactive"}
{"Molecule": "CC(CN(C)C)C(C)(O)Cc1ccc(Cl)cc1 (centres undefined)", "Label class": "inactive"}
{"Molecule": "C[C@H]1O[C@@H](O[C@H]2[C@@H](O)C[C@H](O[C@H]3[C@@H](O)C[C@H](O[C@H]4CC[C@@]5(C)[C@H](CC[C@@H]6[C@@H]5C[C@@H](O)[C@]5(C)[C@@H](C7=CC(=O)OC7)CC[C@]65O)C4)O[C@@H]3C)O[C@@H]2C)C[C@H](O)[C@@H]1O", "Label class": "inactive"}
{"Molecule": "Cc1nnc(C(=O)NC(C)(C)c2nc(C(=O)NCc3ccc(F)cc3)c(O)c(=O)n2C)o1", "Label class": "inactive"}
{"Molecule": "COc1cc(Nc2c(C#N)cnc3cc(OCCCN4CCN(C)CC4)c(OC)cc23)c(Cl)cc1Cl", "Label class": "active"}

Record request — test call for "CCCCCCCCCCCCCCCCO"
inactive

Also, CC(=O)CC(c1ccc([N+](=O)[O-])cc1)c1c(O)c2ccccc2oc1=O (centres undefined) please.
inactive

Also need "CC(=O)c1ccc2c(c1)N(CCCN(C)C)c1ccccc1S2" , thanks.
inactive

Then this molecule: "CNCCCN1c2ccccc2CCc2ccccc21"
inactive

Thanks! And "COc1ccc(-c2cc(=O)c3c(O)cc(O[C@@H]4O[C@H](CO[C@@H]5O[C@@H](C)[C@H](O)[C@@H](O)[C@H]5O)[C@@H](O)[C@H](O)[C@H]4O)cc3o2)cc1O" ?
inactive

What do we get for "NCCNCCNCCNCCN" ?
inactive
